# maps each entry to its Emax
molecular target: hS1P5 (Homo sapiens); construct: gene S1PR5; receptor stably expressed in CHO-K1 cells; assay: biochemical; format: CHO-K1 membranes; design: [35S]GTPgammaS binding to membranes, agonist concentration-response; details: read-out: S1P5 GTPγS Emax, % of S1P
Sequence (Q9H228 whole entry): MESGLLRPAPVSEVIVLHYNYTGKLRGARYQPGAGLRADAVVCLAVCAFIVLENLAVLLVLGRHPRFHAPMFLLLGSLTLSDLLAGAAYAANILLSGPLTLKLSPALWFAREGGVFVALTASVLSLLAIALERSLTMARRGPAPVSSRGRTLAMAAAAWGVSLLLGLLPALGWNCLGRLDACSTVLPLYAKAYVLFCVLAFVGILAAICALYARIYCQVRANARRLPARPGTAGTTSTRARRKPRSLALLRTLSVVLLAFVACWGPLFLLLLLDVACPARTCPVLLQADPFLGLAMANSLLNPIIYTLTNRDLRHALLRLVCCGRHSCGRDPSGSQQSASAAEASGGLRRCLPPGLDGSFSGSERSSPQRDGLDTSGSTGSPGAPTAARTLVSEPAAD
API: value field is a number in %; no unit string.

>>> observed("O=C(O)C[C@H]1CCc2c1[nH]c1ccc(OCc3ccc(C4CCCC4)c(C(F)(F)F)c3)cc21")
72
>>> observed("CCCCCCCCc1ccc(CCC(N)(CO)COP(=O)(O)O)cc1 (stereo not shown)")
69.5

Could you please provide reported Emax for CCc1cc(/C(C)=N/OCc2ccc(C3CCCCC3)c(C(F)(F)F)c2)ccc1CN1CC(C(=O)O)C1 ? Thanks! 118

Could you please provide reported Emax for CC(C)Oc1ccc(-c2nc(-c3cccc4c3CCC4=O)no2)cc1C#N ? Thanks! 105
